Origin of measurements: paper PMC4691061

Target: mammalian tyrosinase (Mus musculus)
Construct: host or cells: B16F10 murine melanoma cells (lysate supernatant)
Sequence (P11344 19-533): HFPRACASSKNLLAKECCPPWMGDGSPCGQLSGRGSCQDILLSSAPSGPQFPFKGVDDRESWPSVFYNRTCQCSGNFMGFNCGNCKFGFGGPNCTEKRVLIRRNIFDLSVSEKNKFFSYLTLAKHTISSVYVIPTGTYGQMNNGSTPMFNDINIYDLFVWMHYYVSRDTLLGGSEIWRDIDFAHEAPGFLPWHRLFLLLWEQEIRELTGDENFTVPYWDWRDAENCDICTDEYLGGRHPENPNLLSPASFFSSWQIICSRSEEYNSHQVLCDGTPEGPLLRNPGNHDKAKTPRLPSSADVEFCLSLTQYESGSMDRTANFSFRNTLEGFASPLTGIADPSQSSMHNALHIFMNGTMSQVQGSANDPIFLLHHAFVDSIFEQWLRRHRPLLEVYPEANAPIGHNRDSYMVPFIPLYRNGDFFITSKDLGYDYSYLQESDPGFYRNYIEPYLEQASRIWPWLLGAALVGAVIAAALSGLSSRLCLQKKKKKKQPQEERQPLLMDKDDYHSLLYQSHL
Assay: Tyrosinase enzyme assay with B16F10 cell lysates
Assay type: biochemical, murine
Settings: B16F10 cell lysates, DOPA substrate; absence of inhibitor = 100%
measure name: Cell Lysate (%)
Answer format: numeric, % implied, no suffix.

Worked set:
INSERT INTO assay_data (smiles_repr, unit_of_measure, experimental_result) VALUES
  ('CCCc1cc(=O)[nH]c(=S)[nH]1', '%', 77),
  ('Cc1cc(=O)[nH]c(=S)[nH]1', '%', 78),
  ('O=c1cc[nH]c(=S)[nH]1', '%', 79),
  ('N=C(N)NN=C1C=CC(=NNC(N)=S)C=C1', '%', 87),
  ('NC(=S)Nc1ccccc1', '%', 5),
  ('Cn1cc[nH]c1=S', '%', 93);

Now let's try a different one.
Quickly give me recorded Cell Lysate (%) for "CC(=O)Nc1ccc(/C=N/NC(N)=S)cc1" 74

---

molecular target: mushroom tyrosinase (Agaricus bisporus, UniProt C7FF04); test: Mushroom tyrosinase enzyme activity inhibition assay; format: biochemical; conditions: 1.4 × (−log10IC50)/N, N = number of non-hydrogen atoms
Sequence (C7FF04 1-392): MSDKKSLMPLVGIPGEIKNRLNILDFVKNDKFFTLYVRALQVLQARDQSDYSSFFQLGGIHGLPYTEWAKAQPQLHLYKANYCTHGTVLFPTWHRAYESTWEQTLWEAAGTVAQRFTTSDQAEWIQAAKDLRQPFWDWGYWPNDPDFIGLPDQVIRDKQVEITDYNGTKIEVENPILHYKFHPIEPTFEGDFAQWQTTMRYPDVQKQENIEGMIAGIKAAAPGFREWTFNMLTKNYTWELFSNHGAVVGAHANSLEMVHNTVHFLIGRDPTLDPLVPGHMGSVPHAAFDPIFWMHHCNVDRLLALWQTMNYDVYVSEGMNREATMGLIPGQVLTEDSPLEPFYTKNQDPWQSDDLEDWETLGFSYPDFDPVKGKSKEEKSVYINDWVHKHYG
measure name: LE (ligand efficiency)

Quote mushroom tyrosinase (Agaricus bisporus, UniProt C7FF04) LE (ligand efficiency) for entry O=c1cc[nH]c(=S)[nH]1 [compound 7, Thiouracil] . 0.64

Please look at CC(=O)Nc1ccc(/C=N/NC(N)=S)cc1 [compound 3, Thioacetazone] and tell me its recorded LE (ligand efficiency) on mushroom tyrosinase (Agaricus bisporus, UniProt C7FF04). 0.43

Report LE (ligand efficiency) from mushroom tyrosinase (Agaricus bisporus, UniProt C7FF04) testing of N=C(N)NN=C1C=CC(=NNC(N)=S)C=C1 [compound 4, Ambazone] 0.42

Look up and report LE (ligand efficiency), with mushroom tyrosinase (Agaricus bisporus, UniProt C7FF04) as system, for Cc1cc(=O)[nH]c(=S)[nH]1 [compound 8, Methylthiouracil] 0.56

---

# Ki values compiled below
biological target: mushroom tyrosinase (Agaricus bisporus); test: Kinetics of enzyme inhibition (Michaelis-Menten, nonlinear fitting, F-statistics); type: biochemical
Could you give me the number in µM? Just the number is fine.

Check the records and state Ki for "CCCc1cc(=O)[nH]c(=S)[nH]1" 196

Look up Ki of "N=C(N)NN=C1C=CC(=NNC(N)=S)C=C1" and report it. 9

Tell me measured Ki for "CC(=O)Nc1ccc(/C=N/NC(N)=S)cc1" please. 18
